Test: physchem
Details: 20 °C, water
measure.name: solubility (mg/mL)

| molecule | unit.abbrev | measured.number |
| --- | --- | --- |
| c1scc2c1OCCO2 [EDT, 3,4-ethylenedioxythiophene] | mg/mL | 2.1 |
